Would you kindly list EC50 for each of these compounds?
molecular target: UniProt P0AE70; experiment: substrate-only fluorescence increase artefacts – biochemical, single-stranded RNase substrate, counter-screen for MazEF activator project, dose response (AID 588502); assay type: functional
Sequence (P0AE70 whole entry): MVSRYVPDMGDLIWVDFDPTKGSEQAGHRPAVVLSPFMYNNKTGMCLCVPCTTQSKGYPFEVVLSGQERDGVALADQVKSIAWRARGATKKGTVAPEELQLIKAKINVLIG
Active and inactive are the calls of the source.

*Q* Name the recorded EC50 for CCOC(=O)C1=C(C)N=c2s/c(=C/c3ccccc3)c(=O)n2C1c1ccc(OC)c(OC)c1 (stereo not given) .
*A* > 99 µM (inactive)

*Q* Also `COc1cccc(NC(=O)c2ccc(-c3ccc([N+](=O)[O-])cc3)o2)c1` , if possible.
*A* > 99 µM (inactive)

*Q* Also `Oc1ccc(Cl)cc1C1=Nc2ccccc2N=C(c2ccco2)C1` , if possible.
*A* > 99 µM (inactive)

*Q* Also `Nc1c(C(=O)c2ccccc2)sc2nsc(SCCN3CCOCC3)c12` , if possible.
*A* > 99 µM (inactive)

*Q* Also `COc1ccc(-c2cc(C)no2)cc1S(=O)(=O)N1CCOc2ccc(C)cc21` , if possible.
*A* > 99 µM (inactive)

====

test: viability loss in CEM21 cells – cell-based, CellTiter-Glo luminescence, cherry-picked, cytotoxicity control for viral fusion inhibitor project, dose response (AID 652042); assay type: functional;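 note: potency for signal decrease meaning cytotoxicity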
The source made the active and inactive calls.
attribute measured: AC50

*Q* Name the recorded AC50 for Cc1ccc(C(O)(c2ccccc2)c2ccccc2C(C)N(C)C)c(C)c1 (centres undefined) .
*A* 19.6 µM (active)

*Q* Also `CCN(CC)S(=O)(=O)c1ccc(NC(=O)Nc2cccc(C(F)(F)F)c2)cc1` , if possible.
*A* 13.6 µM (active)

*Q* Also `CCc1ccc(Nc2n[n+](-c3ccccc3)c(-c3c(Cl)cccc3Cl)s2)cc1` , if possible.
*A* 10.8 µM (active)

*Q* Also Cc1ccc(C(C(=O)NC2CCCCC2)N(C(=O)Cc2c[nH]c3ccccc23)c2ccccc2)o1 (centres undefined) , if possible.
*A* 47.4 µM (active)

====

target: Protein skinhead-1 (Caenorhabditis elegans); format: functional
Sequence (P34707 whole entry): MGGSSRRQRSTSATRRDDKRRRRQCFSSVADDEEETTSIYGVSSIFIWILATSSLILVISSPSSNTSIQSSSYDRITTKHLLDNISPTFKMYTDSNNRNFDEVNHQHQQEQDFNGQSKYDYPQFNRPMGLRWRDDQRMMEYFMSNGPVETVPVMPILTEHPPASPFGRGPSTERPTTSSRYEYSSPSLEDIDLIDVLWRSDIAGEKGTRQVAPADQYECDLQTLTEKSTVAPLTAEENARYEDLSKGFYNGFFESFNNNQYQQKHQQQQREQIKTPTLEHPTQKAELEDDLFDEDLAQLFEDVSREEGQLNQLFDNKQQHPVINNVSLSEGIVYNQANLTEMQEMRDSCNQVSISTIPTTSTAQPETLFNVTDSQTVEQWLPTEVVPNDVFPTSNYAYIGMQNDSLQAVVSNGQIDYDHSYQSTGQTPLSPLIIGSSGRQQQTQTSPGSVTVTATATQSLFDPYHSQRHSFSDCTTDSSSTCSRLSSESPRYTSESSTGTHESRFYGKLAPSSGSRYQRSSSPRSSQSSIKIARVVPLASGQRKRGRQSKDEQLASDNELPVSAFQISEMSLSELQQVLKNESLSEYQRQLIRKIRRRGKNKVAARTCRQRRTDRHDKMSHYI
The source made the active and inactive calls.
Please answer using one outcome listed in active, inactive

*Q* Record request — test call for COc1ccc(S(=O)(=O)N2CC(C(=O)O)Oc3ccccc32)cc1 (stereo not given)
*A* inactive

*Q* Also `COc1ccc(C(=O)/C=C/c2ccc(OC)c(CN3CCOCC3)c2)cc1` , if possible.
*A* active

*Q* Also COc1ccc(CN(C(=O)c2oc3ccccc3c2C)C2CCS(=O)(=O)C2)cc1 (stereo not given) , if possible.
*A* inactive

*Q* Also `Fc1ccc(-c2csc(N3CCSCC3)n2)cc1` , if possible.
*A* inactive

*Q* Also `Cc1c(N2C(=O)/C(=C\c3ccc(N(C)C)cc3)N(C)C2=S)c(=O)n(-c2ccccc2)n1C` , if possible.
*A* inactive

====

Target: RNA-binding protein pos-1 (Caenorhabditis elegans)
Sequence (G5EF15 whole entry): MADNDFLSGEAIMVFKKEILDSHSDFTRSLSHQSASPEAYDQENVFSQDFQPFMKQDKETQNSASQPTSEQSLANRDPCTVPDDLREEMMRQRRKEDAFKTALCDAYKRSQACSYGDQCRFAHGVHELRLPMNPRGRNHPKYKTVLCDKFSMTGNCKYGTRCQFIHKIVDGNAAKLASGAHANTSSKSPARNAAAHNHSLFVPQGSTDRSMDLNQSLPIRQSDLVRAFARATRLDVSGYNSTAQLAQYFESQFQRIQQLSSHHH
Experiment: disruptors of C. elegans POS-1 RNA interaction – biochemical, fluorescence polarization, dose response (AID 1964);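 note: purified POS-1 fused to maltose binding protein made in E. coli; potency of compounds blocking POS-1 binding to fluorescent RNA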
Structures can show the parent of a compound that is named as a salt. Active and inactive are the calls of the source.
attribute measured: EC50

*Q* I'm curious: which EC50 was measured for `COc1ccc(C(=O)NNC(=O)c2cnccn2)cc1[N+](=O)[O-]` tested on RNA-binding protein pos-1 (Caenorhabditis elegans)?
*A* 25.3 µM (active)

*Q* Also COc1ccc(C2C(C#N)=C(/N=C/N3CCN(C)CC3)OC3=C2C(=O)CC(C)(C)C3)cc1OC (stereo not given) , if possible.
*A* > 300 µM (not active)

*Q* Also `CCOC(=O)COn1c(=O)c(-c2cc3ccccc3o2)[n+]([O-])c2ccccc21` , if possible.
*A* > 300 µM (not active)

*Q* Also CCOC(=O)C1Nc2c(F)cc(C)cc2C2C=CCC12 (stereo not given) , if possible.
*A* > 300 µM (not active)

*Q* Also `O=C1N=C(Nc2ccccc2Cl)S/C1=C\c1cc([N+](=O)[O-])ccc1O` , if possible.
*A* 10.9 µM (active)

*Q* Also CC1(OC(=O)CCc2ccccc2)C(=O)C=C2C=C(c3ccsc3)OC=C2C1=O (stereo not given) , if possible.
*A* 49.7 µM (active)

*Q* Also `COc1cccc(/C=N/Nc2ncnc(N)c2[N+](=O)[O-])c1OC` , if possible.
*A* 18.4 µM (active)

*Q* Also `Cc1ccc(S(=O)(=O)NNc2nc3ccccc3nc2C(F)(F)F)cc1` , if possible.
*A* 39.8 µM (active)

*Q* Also CCC(NC(C)C)C(O)c1ccc(O)c(O)c1 (stereo not given) [ISOETHARINE MESYLATE] , if possible.
*A* > 300 µM (not active)

*Q* Also `CCCn1c(N)c(N(CCOC)C(=O)Cc2ccc(S(=O)(=O)N3CCOCC3)s2)c(=O)[nH]c1=O` , if possible.
*A* > 300 µM (not active)
